Values from patent EP3866610B1

# protocol: physchem
# Format: physicochemical
# condition_set: simulated salivary fluid; SAMPLE 1: 2.8528 g dark chocolate, maltitol 1.35 g, ethanol 199.8 µL, curcumin 50 mg, resveratrol 50 mg; extraction with 6 ml SSF at room temperature; read-out: Concentration
# Description: The SSF was prepared following the instructions included in the article published by Minekus et al. in 2014 in the journal Food & Function (Minekus M, Alminger M, Alvito P, et al. A standardized static in vitro digestion method suitable for food - an international consensus. Food & Funct. 2014. 5:1113-1124). […]
measurement_name: solubility (µg/mL)

1. Oc1ccc(/C=C/c2cc(O)cc(O)c2)cc1 [Resveratrol, 3,5,4'-trihydroxy-trans-stilbene] = 156

----------
# protocol: physchem
# Format: physicochemical
# condition_set: dmem medium, no matrix; 167 mg curcumin and 167 mg resveratrol in 20 ml DMEM, filtered; mean of technical triplicates; read-out: Concentration in DMEM medium
measurement_name: solubility (µg/mL)

1) Oc1ccc(/C=C/c2cc(O)cc(O)c2)cc1 [Resveratrol, 3,5,4'-trihydroxy-trans-stilbene] = 31.8

----------
# protocol: physchem
# Type: physicochemical
# condition_set: dmem medium; with chocolate matrix: 200 mg curcumin, 200 mg resveratrol, 5.4 g maltitol, 12 g dark chocolate, 799.2 µl ethanol; hexane-defatted, re-suspended in 24 ml DMEM; mean of technical triplicates; read-out: Concentration in DMEM medium
measurement_name: solubility (mg/mL)

1. Oc1ccc(/C=C/c2cc(O)cc(O)c2)cc1 [Resveratrol, 3,5,4'-trihydroxy-trans-stilbene] = 0.125
